Listing of recorded LC retention time by entry.
# ASSAY_METHOD_TEXT: RP, Waters ACQUITY Premier BEH C18, 100 × 2.1 mm, 1.7 µm, 40 °C, 0.3 to 0.4 mL/min, estimated dead time 0.73 min; A: water + 0.1% formic acid; B: acetonitrile + 0.1% formic acid; gradient (min/%B) 0/0.5 0.1/0.5 10/80 10.1/99.5 12/0.5 12.1/0.5 14.5/0.5
# ASSAY_CONTEXT: stereoisomer not certain
The response must be a number in min with no trailing unit.

In the examples that follow, each entry is paired with its recorded LC retention time.
COc1ccc(-c2coc3cc(O)cc(O)c3c2=O)cc1 [BIOCHANIN A] :: 7.15
O=C(O)CCCCCC(=O)O [6-CARBOXYHEXANOATE] :: 4.46

Ask: What does the record list as LC retention time for CC(=O)Nc1c(NC=O)[nH]c(=O)n(C)c1=O [5-ACETYLAMINO-6-FORMYLAMINO-3-METHYLURACIL] ?
Result: 1.11

====

# ASSAY_METHOD_TEXT: RP, Waters ACQUITY Premier BEH C18, 100 × 2.1 mm, 1.7 µm, 40 °C, 0.3 to 0.4 mL/min, estimated dead time 0.73 min; A: water + 0.1% formic acid; B: acetonitrile + 0.1% formic acid; gradient (min/%B) 0/0.5 0.1/0.5 10/80 10.1/99.5 12/0.5 12.1/0.5 14.5/0.5
# ASSAY_CONTEXT: stereoisomer not certain
Listing of recorded LC retention time by entry.
The response must be a number in min with no trailing unit.

Ask: What does the record list as LC retention time for COc1cc(CCN)ccc1O ?
Result: 3.47

Ask: What does the record list as LC retention time for NC(=O)c1ccc[n+](C2OC(COP(=O)([O-])O)C(O)C2O)c1 (stereo not drawn) [NICOTINAMIDE MONONUCLEOTIDE] ?
Result: 0.959

Ask: What does the record list as LC retention time for COc1cc(CC2COC(=O)C2Cc2ccc(O)c(OC)c2)ccc1O (single isomer, unassigned; (-)) [(-)-MATAIRESINOL] ?
Result: 6.12

Ask: What does the record list as LC retention time for O=c1c(O)c(-c2ccc(O)c(O)c2)oc2cc(O)cc(O)c12 ?
Result: 5.6

Ask: What does the record list as LC retention time for NC(=O)c1ccccc1O [SALICYLAMIDE] ?
Result: 5.04

Ask: What does the record list as LC retention time for NC(CCC(=O)NC(Cc1ccccc1)C(=O)O)C(=O)O (stereo not drawn) ?
Result: 3.65

Ask: What does the record list as LC retention time for COc1cc2c(cc1O)CCC1C2CCC2(C)C(=O)CCC12 (stereo not drawn) ?
Result: 7.38

Ask: What does the record list as LC retention time for COc1c(O)cc2oc3cc(O)c(CC=C(C)C)c(O)c3c(=O)c2c1CC=C(C)C ?
Result: 8.32

====

Listing of recorded LC retention time by entry.
# ASSAY_METHOD_TEXT: RP, Waters ACQUITY Premier BEH C18, 100 × 2.1 mm, 1.7 µm, 40 °C, 0.3 to 0.4 mL/min, estimated dead time 0.73 min; A: water + 0.1% formic acid; B: acetonitrile + 0.1% formic acid; gradient (min/%B) 0/0.5 0.1/0.5 10/80 10.1/99.5 12/0.5 12.1/0.5 14.5/0.5
# ASSAY_CONTEXT: stereoisomer not certain
The response must be a number in min with no trailing unit.

In the examples that follow, each entry is paired with its recorded LC retention time.
CCCCCCCCCCCC(=O)OC(CC(=O)O)C[N+](C)(C)C.[Cl-] (configuration not stated) :: 7.14
CCCCCCCCCCCCC(O)C(=O)O (configuration not stated) [2-HYDROXYMYRISTIC ACID] :: 8.3
NC(=O)c1ccc[n+](C2OC(COP(=O)(O)OP(=O)(O)OCC3OC(n4cnc5c(N)ncnc54)C(O)C3O)C(O)C2O)c1 (stereo not drawn) [BETA-NICOTINAMIDE ADENINE DINUCLEOTIDE] :: 2.13

Ask: What does the record list as LC retention time for O=c1c(-c2ccc(O)cc2)coc2c(C3OC(CO)C(O)C(O)C3O)c(O)ccc12 (configuration not stated) ?
Result: 3.76

Ask: What does the record list as LC retention time for O=c1cc(-c2ccc(O)c(O)c2)oc2cc(OC3OC(CO)C(O)C(O)C3O)cc(O)c12 (configuration not stated) [LUTEOLIN-7-GLUCOSIDE] ?
Result: 4.44

Ask: What does the record list as LC retention time for OCC1OC(OC2C(CO)OC(OC3C(CO)OC(OC4C(CO)OC(O)C(O)C4O)C(O)C3O)C(O)C2O)C(O)C(O)C1O (configuration not stated) ?
Result: 1.07

Ask: What does the record list as LC retention time for Nc1ccccc1S(=O)(=O)O [ANILINE-2-SULFONATE] ?
Result: 2.54

Taken from the RepoRT retention time repository.
